// provenance: paper PMC4336329

study target: human ether-à-go-go-related gene (hERG) potassium channel (human);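 note: peak tail current of the secondary pulse compared with the same well before compound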
experiment description: primary screen, population patch clamp on CHO cells stably expressing hERG; higher = less effect of the substance
About 14,000 (4.5%) of roughly 310,000 compounds showed an effect of 50% or more. Effects have a minus sign here. The entries come from a sample that favours strong results as a whole.
Assign 1.0 whenever hERG current change (%, negative = inhibition) at 10uM does not fall below -10%; assign 0.0 whenever it does.

>>> answer_label("Cc1ccccc1-c1nnn(CC(=O)N2CCN(C(=O)c3ccco3)CC2)n1")
0.0
>>> answer_label("COc1ccc(C(=O)Nc2ccc(-c3nnn(CC(=O)N4CCN(C(=O)c5ccco5)CC4)n3)cc2)cc1")
1.0
>>> answer_label("O=C(Nc1ccc(-c2nnn(CC(=O)N3CCN(C(=O)c4ccco4)CC3)n2)cc1)c1ccccc1F")
0.0
>>> answer_label("Br.COc1ccccc1N1Cc2ccccc2C1")
0.0
>>> answer_label("CCOC(=O)N1CCN(CC(O)COCc2ccccc2)CC1.Cl (stereo not shown)")
1.0
>>> answer_label("CCC(=O)OC1(C)C(=O)C=C2C=C(C3CC3)OC=C2C1=O (stereo not shown)")
1.0
>>> answer_label("O=C(Cn1nnc(-c2ccc(Cl)cc2)n1)N1CCN(C(=O)c2ccco2)CC1")
0.0
>>> answer_label("O=C(Nc1ccccc1N1CCCC1)c1ccc(N2CCCC2=O)cc1")
0.0
>>> answer_label("CN(C)CCNC(=O)Cn1ccc2cc(S(=O)(=O)N3CCCCCC3)ccc21")
0.0
>>> answer_label("O=C(Cn1nnc(-c2ccccc2)n1)N1CCN(S(=O)(=O)c2ccc(Cl)cc2)CC1")
1.0
>>> answer_label("Cc1ccc(NC(=O)C[n+]2cc(-c3ccccc3)n3c2CCC3)c(C)c1.[Cl-]")
1.0
>>> answer_label("O=C(Nc1cccc2oc(=O)ccc12)c1ccc([N+](=O)[O-])cc1[N+](=O)[O-]")
0.0
>>> answer_label("Nc1cccnc1S(=O)(=O)c1ccccc1")
1.0
>>> answer_label("O=C(Nc1ccc(-c2nnn(CC(=O)N3CCN(C(=O)c4ccco4)CC3)n2)cc1)c1ccc(F)cc1")
1.0
>>> answer_label("COc1ccccc1-n1c(CCC(=O)O)ccc1-c1ccccc1")
0.0
>>> answer_label("COc1ccc(-c2ocnc2C(=O)NCc2nn(-c3ccccc3)nc2C)cc1")
1.0
>>> answer_label("CCOC(=O)/C=C1\\CN(Cc2cc(OC)c(OC)c(OC)c2)S(=O)(=O)c2ccc(C(F)(F)F)cc21")
0.0
>>> answer_label("Cc1ccc(-n2c(-c3ccccc3)n[nH]c2=S)c(C)c1")
1.0
>>> answer_label("COc1ccccc1-n1c(-c2ccccc2)c[n+]2c1CCc1ccccc1-2.[Br-]")
0.0

* * *

Parameter hERG current change (%, negative = inhibition) at 10uM: see the listing below.
study target: human ether-à-go-go-related gene (hERG) potassium channel (human, UniProt Q12809);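 note: peak tail current of the secondary pulse compared with the same well before compound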
Sequence (Q12809 whole entry, looked up): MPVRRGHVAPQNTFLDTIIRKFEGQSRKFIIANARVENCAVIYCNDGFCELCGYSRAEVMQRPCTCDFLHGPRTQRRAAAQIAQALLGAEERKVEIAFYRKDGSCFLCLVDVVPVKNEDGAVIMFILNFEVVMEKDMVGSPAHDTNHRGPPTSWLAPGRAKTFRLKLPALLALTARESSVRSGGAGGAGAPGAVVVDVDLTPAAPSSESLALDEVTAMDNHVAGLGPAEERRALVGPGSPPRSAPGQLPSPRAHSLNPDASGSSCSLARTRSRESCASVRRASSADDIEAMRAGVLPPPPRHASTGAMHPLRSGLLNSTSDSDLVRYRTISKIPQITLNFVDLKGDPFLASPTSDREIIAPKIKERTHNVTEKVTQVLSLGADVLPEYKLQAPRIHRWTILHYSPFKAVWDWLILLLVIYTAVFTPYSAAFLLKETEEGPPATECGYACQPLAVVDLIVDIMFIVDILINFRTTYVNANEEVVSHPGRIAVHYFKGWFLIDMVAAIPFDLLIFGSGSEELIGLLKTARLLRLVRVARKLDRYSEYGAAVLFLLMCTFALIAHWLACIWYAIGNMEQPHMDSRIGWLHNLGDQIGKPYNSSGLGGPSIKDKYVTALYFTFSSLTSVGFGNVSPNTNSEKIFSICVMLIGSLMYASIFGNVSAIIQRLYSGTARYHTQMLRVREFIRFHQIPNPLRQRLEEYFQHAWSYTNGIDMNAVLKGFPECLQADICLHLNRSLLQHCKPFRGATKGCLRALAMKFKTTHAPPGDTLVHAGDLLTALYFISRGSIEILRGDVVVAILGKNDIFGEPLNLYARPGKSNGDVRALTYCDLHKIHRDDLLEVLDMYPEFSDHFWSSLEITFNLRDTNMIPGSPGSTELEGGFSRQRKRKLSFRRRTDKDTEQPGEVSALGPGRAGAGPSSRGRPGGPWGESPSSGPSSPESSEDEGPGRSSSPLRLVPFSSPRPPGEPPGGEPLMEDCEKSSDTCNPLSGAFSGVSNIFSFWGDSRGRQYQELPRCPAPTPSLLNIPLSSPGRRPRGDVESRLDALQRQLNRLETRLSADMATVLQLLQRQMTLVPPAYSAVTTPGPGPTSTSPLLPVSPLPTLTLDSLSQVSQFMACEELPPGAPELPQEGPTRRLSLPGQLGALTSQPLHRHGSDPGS
experiment description: primary screen, population patch clamp on CHO cells stably expressing hERG; higher = less effect of the substance
Hit rate of the full screen: of about 310,000 compounds, about 14,000 (4.5%) showed an effect of 50% or more. Effects have a minus sign here. The full list was thinned out, with strong results kept by preference.
reported endpoint: hERG current change (%, negative = inhibition) at 10uM (%)

>>> meas_value("CCOC(=O)C1CCN(CC(=O)c2c(C)[nH]c3cc(C)ccc23)CC1")
-60.5
>>> meas_value("Cc1cccn2c(=O)c(C=NCc3ccccc3)c(NCCO)nc12")
0.417
>>> meas_value("CC(Oc1ccc2c3c(c(=O)oc2c1)CCCC3)C(=O)NCc1ccncc1 (stereo not shown)")
4.36
>>> meas_value("COc1ccc(OC)c(C(C)NC(=S)NC2CCCCC2)c1 (stereo not shown)")
-6.58
>>> meas_value("COCCN1CN(S(=O)(=O)c2ccccc2)c2nc3ccccc3nc21")
-16.7
>>> meas_value("CCOC(=O)C1CCN(CC(=O)c2c(C)[nH]c3ccccc23)CC1")
-39.7
>>> meas_value("Cc1cccc(-c2n[nH]c(=S)n2/N=C/c2ccco2)c1")
2.87
>>> meas_value("CCNC(=O)OCC12CC3CC(CC(C3)C1)C2")
-5.85
>>> meas_value("COc1ccc(NC(=O)CSc2nc3ccccc3nc2N2CCCC2)c(OC)c1")
24.1
>>> meas_value("C=CCn1c(=O)c(C=Nc2cccc([N+](=O)[O-])c2)c(O)n(CCCC)c1=O")
-55
>>> meas_value("CCOC(=O)C1(CCc2ccccc2)CCN(C(=O)CN2C(=O)CSC2=O)CC1")
-23.3
>>> meas_value("Oc1ccc(/C=N/N2CCN(Cc3ccccc3)CC2)cc1")
7.33
>>> meas_value("Cn1c(=O)c2c(SCc3cccc(C(F)(F)F)c3)nc(-c3ccco3)nc2n(C)c1=O")
-3.88
>>> meas_value("O=C(NCC(=O)N(c1ccc(F)cc1)C(C(=O)NC1CCCC1)c1cccnc1)c1cccs1 (stereo not shown)")
7.21
>>> meas_value("CC(=O)NC1C(OCc2ccccc2)OC2COC(C)(C)OC2C1O (stereo not shown)")
18.3
>>> meas_value("CCOC(=O)N1CCN(c2nc3ccccc3nc2C(C#N)C(=O)NCCc2ccccc2)CC1 (stereo not shown)")
7.98
>>> meas_value("C=CCn1c(=O)c(C=Nc2cccnc2Cl)c(O)n(CCCC)c1=O")
-5.65
>>> meas_value("CCN(CC)S(=O)(=O)c1ccc(OC)c(NC(=O)c2ccc([N+](=O)[O-])cc2)c1")
-34.9
>>> meas_value("COc1ccc(NC(=O)c2nn(C)c(=O)c3ccccc23)cc1S(=O)(=O)Nc1ccccc1Cl")
26
>>> meas_value("COc1cccc(NC(=O)N(CCCN2CCOCC2)C(C)c2cc3ccccc3o2)c1 (stereo not shown)")
-62.5
>>> meas_value("CCC(C)COC(=O)C(C#N)c1nc2ccccc2nc1N1CCCCC1 (stereo not shown)")
-1.25
>>> meas_value("Cc1cc(NC(=O)c2cc(-c3ccc(Br)cc3)on2)no1")
17.6
>>> meas_value("COc1cccc(NC(=O)N(CCCN2CCOCC2)C(C)c2cc3cccc(OC)c3o2)c1 (stereo not shown)")
-29.4
>>> meas_value("CCOC(=O)C1(CCCc2ccccc2)CCN(C(=O)CCOC)CC1")
-46.8
>>> meas_value("CCC(CC)COC(=O)C(C#N)c1nc2ccccc2nc1N1CCOCC1 (stereo not shown)")
-7.91
>>> meas_value("CN1CCN(c2ncnc3c2cnn3C)CC1")
19.5
>>> meas_value("COc1cccc2cc(C(C)N(CCCN3CCOCC3)C(=O)Nc3ccccc3)oc12 (stereo not shown)")
-16.9
>>> meas_value("CCOC(=O)C1(CCCc2ccccc2)CCN(Cc2cnn(C)c2)CC1")
-71.6
>>> meas_value("C=CCn1c(=O)c(C=Nc2c(OC)cccc2[N+](=O)[O-])c(O)n(CCCC)c1=O")
-23.8
>>> meas_value("CCOC(=O)C1(Cc2ccccc2)CCCN(CCCn2cccn2)C1 (stereo not shown)")
-14.2
>>> meas_value("CN(C)S(=O)(=O)N(CC(=O)Nc1ccc2ccccc2c1)c1ccccc1")
8.45
>>> meas_value("CCCC(C(=O)O)n1c(O)c(C=C2N=c3ccccc3=N2)sc1=S (stereo not shown)")
6.16
>>> meas_value("COc1ccc(NC(=O)CC2C(=O)N(c3ccccc3)C(=O)N2CCc2cccs2)cc1 (stereo not shown)")
-32.9
>>> meas_value("COCCCN1CN(S(=O)(=O)c2ccc(Cl)cc2)c2nc3ccccc3nc21")
-32.7
>>> meas_value("Cc1ccc(SCc2ccc(C(=O)NCc3cccnc3)cc2)cc1")
3.85
>>> meas_value("CCOC(=O)C1(CCCc2ccccc2)CCN(C(=O)CCC2=NNC(=O)CC2)CC1")
11.8
>>> meas_value("O=C(Nc1ccc(Cl)cc1)c1cccnc1N1CCCCC1")
-13.3
>>> meas_value("COc1ccc(NC(=S)N(CCCN2CCOCC2)C(C)c2cc3ccccc3o2)cc1 (stereo not shown)")
-78.4
>>> meas_value("CCOC(=O)C1(CCCc2ccccc2)CCN(CCCn2cccn2)CC1")
-79.1
>>> meas_value("CCC(CC)COC(=O)C(C#N)c1nc2ccccc2nc1N1CCN(CC)CC1 (stereo not shown)")
-72.7
